Tested on: COLO 205
Assay: NCI tumour cell line growth inhibition, 48 h
Calls of active or inactive are those of the source. Rule as the data show it: active = GI50 up to about 1.1 µM and inactive = higher. Non-standard residues stand in square brackets, D forms with d. Residues, ends and D or L forms follow the SMILES beside them. *: point of attachment. Bn2Val = CC(C)[C@@H](C(=O)*)N(Cc1ccccc1)Cc1ccccc1; NH(4-Cl-benzyl) = Clc1ccc(CN*)cc1; NMeF = CN[CH](Cc1ccccc1)C(=O)O; NMeV = CN[CH](C(=O)O)C(C)C; dNMeA = CN[C@H](C)C(=O)O; Boc = CC(C)(C)OC(=O)*
Possible outcomes: active, inactive

>  <compound>
CCOC(=O)c1c(NS(=O)(=O)c2ccc(Br)cc2)sc2c1CCCC2

>  <label class>
inactive

$$$$
>  <compound>
Nc1nc(O)nc2sc3c(c12)CCCC3

>  <label class>
inactive

$$$$
>  <compound>
Nc1sc2c(c1C(=O)c1ccc(Cl)c(Cl)c1)CCCC2

>  <label class>
inactive

$$$$
>  <compound>
COc1ccc(Nc2nc3ccccc3nc2-c2cccs2)cc1OC

>  <label class>
inactive

$$$$
>  <compound>
CC/C(=N/O)c1ccc(Br)s1

>  <label class>
inactive

$$$$
>  <compound>
S=C(Nc1ccc(Cl)cc1)SC1CCCCC1

>  <label class>
inactive

$$$$
>  <compound>
N=C(N)NS(=O)(=O)c1ccc(Nc2c3ccccc3nc3c(C(=O)NNCCO)cccc23)cc1

>  <label class>
active

$$$$
>  <compound>
CCC(C)C(=O)OC1C(=O)OC2CC3C(C)=CC(=O)C(O)C3(C)C3C4(O)OCC23C1C(C)C4O (stereo unspecified)

>  <label class>
active

$$$$
>  <compound>
Cc1cc(C)[n+](CCOc2ccc(/C(=C(/Cl)c3ccccc3)c3ccccc3)cc2)c(C)c1.[O-][Cl+3]([O-])([O-])[O-]

>  <label class>
active

$$$$
>  <compound>
Cc1ncn(-c2ccccc2O)c1C

>  <label class>
inactive

$$$$
>  <compound>
CN1CCN(CCCCN2c3ccccc3Sc3ccc(N=[N+]=[N-])cc32)CC1

>  <label class>
inactive

$$$$
>  <compound>
CC(=O)OC1COC(N2C(=O)C(=O)c3cc(Br)ccc32)C(OC(C)=O)C1OC(C)=O (stereo unspecified)

>  <label class>
inactive

$$$$
>  <compound>
CC1C=C(CCCCCCCCCCCC[C@@H](O)[C@@H]2CC[C@@H]([C@@H]3CC[C@@H](C(O)CCCCCCCCCCCCC4=C[C@H](C)OC4=O)O3)O2)C(=O)O1 (stereo partly specified)

>  <label class>
inactive

$$$$
>  <compound>
Nc1ncnc2c1ncn2CCCNO

>  <label class>
inactive

$$$$
>  <compound>
O=C1C2=C(CCC2)Nc2cccc3ncn1c23

>  <label class>
inactive

$$$$
>  <compound>
O=C(Nc1ccc(Cl)c(Cl)c1)C1C(=O)N(c2ccc(Cl)c(Cl)c2)C(=O)/C1=N\O (stereo unspecified)

>  <label class>
inactive

$$$$
>  <compound>
CC(C)[C@H](NC(=O)[C@H](C(C)C)N(Cc1ccccc1)Cc1ccccc1)C(=O)N(C)[C@H](C(=O)N1CCC[C@H]1C(=O)N(C)[C@H](C)C(=O)NCc1ccc(Cl)cc1)C(C)C (Bn2Val-V[NMeV]P[dNMeA]-{NH(4-Cl-benzyl)})

>  <label class>
inactive

$$$$
>  <compound>
C=C1C(=O)O[C@@H]2C[C@@H](C)[C@@H]3C=CC(=O)[C@@]3(C)[C@@H](OC(=O)CC(=O)O[C@H]3[C@@H]4C(=C)C(=O)O[C@@H]4C[C@@H](C)[C@@H]4C=CC(=O)[C@]43C)[C@H]12

>  <label class>
active

$$$$
>  <compound>
CN(C)/C=N/c1nc2ncn(CCOC(=O)c3ccccc3)c2c(=O)[nH]1

>  <label class>
inactive

$$$$
>  <compound>
Nc1ccc(Oc2ccc(C34CC5CC(C3)CC(c3ccc(Oc6ccc(N)c(O)c6)cc3)(C5)C4)cc2)cc1O

>  <label class>
inactive

$$$$
>  <compound>
COC(=O)C[C@H](CCSC)NC(=O)C[C@H](CCSC)NC(=O)C[C@H](CCSC)NC(=O)OC(C)(C)C

>  <label class>
inactive

$$$$
>  <compound>
COc1cc(C2=C(C#N)C(N)OC3=C2COc2ccccc23)cc(OC)c1OC (stereo unspecified)

>  <label class>
inactive

$$$$
>  <compound>
C/C(=N\N=C(/[SeH])N1CC2CCC(CC2)C1)c1ccccn1

>  <label class>
active

$$$$
>  <compound>
CCOC(=O)C1N(S(=O)(=O)c2ccc(C)cc2)CCC12c1ccccc1N(C(C)=O)C2C(/C=C/C(=O)OC)=C/C(=O)OC (stereo unspecified)

>  <label class>
inactive

$$$$
>  <compound>
Cc1cc(-c2c(Br)cc(C(=O)O)n2C)on1

>  <label class>
inactive

$$$$
>  <compound>
CC1Oc2cc3c(-c4c(O)cc(O)c5c(O)c6c(cc45)OC(C)C(C)C6=O)c(O)cc(O)c3c(O)c2C(=O)C1C (stereo unspecified)

>  <label class>
active

$$$$
>  <compound>
C=C1[C@@H](OC(C)=O)/C=C/C2C3C(=O)[C@@](C)(OC(C)=O)[C@H]([C@H](OC(C)=O)[C@]4(O)[C@@H](C)C(=O)O[C@H]4[C@H]1Cl)[C@@]23C (stereo partly specified)

>  <label class>
inactive

$$$$
>  <compound>
N=C(N)n1ncc(Cl)c(Cl)c1=O

>  <label class>
inactive

$$$$
>  <compound>
C[C@H]1[C@H](C)N1CC(O)Cn1ccnc1[N+](=O)[O-] (stereo partly specified)

>  <label class>
inactive

$$$$
>  <compound>
CCCCOCCOCCOC1=CC(=O)c2c(O)ccc(O)c2C1=O

>  <label class>
inactive

$$$$
>  <compound>
Cc1nnc(N/N=C2/C(=O)Nc3c(Cl)cc(Cl)cc32)n1N

>  <label class>
inactive

$$$$
>  <compound>
COc1ccc(CC/N=C2\OCc3ccccc32)cc1OC

>  <label class>
inactive

$$$$
>  <compound>
CC(C)C(NC(=O)OC(C)(C)C)C(=O)N(C)C(Cc1ccccc1)C(=O)N(C)C(C(=O)N(C)C(C(=O)O)C(C)C)C(C)C (stereo unspecified) (Boc-V[NMeF][NMeV][NMeV]-OH; configuration not given here)

>  <label class>
inactive

$$$$
>  <compound>
Nc1ccc(S(=O)(=O)Nc2cnc3c(Cl)cccc3n2)cc1

>  <label class>
inactive

$$$$
>  <compound>
CN(C)CCCNC(=O)c1cc(NS(=O)(=O)c2ccc3c(c2)C(=O)c2ccccc2C3=O)cn1C

>  <label class>
inactive

$$$$
>  <compound>
c1ccc(-n2nc3ccc4nonc4c3n2)cc1

>  <label class>
inactive

$$$$

---

Test system: DLD-1
Assay: NCI tumour cell line growth inhibition, 48 h
Activity calls are given as the source filed them. Rule as the data show it: active = GI50 up to about 1.1 µM and inactive = higher.
quantity kind: GI50

>  <compound>
COC(=O)C1CCc2c(OC)ccc(OC)c2C1=O (stereo not given)

>  <target or system>
DLD-1

>  <measured>
> 100 µM (inactive)

$$$$
>  <compound>
COC(=O)C(C(=O)C(N)=O)c1csc(-n2nc(-c3ccccc3)cc2-c2ccccc2)n1 (stereo not given)

>  <target or system>
DLD-1

>  <measured>
> 31.6 µM (inactive)

$$$$
>  <compound>
CN1C(=O)CC(CC(=O)C2CCCCC2=O)CC1=O (stereo not given)

>  <target or system>
DLD-1

>  <measured>
> 100 µM (inactive)

$$$$
>  <compound>
CCN(CC)C(=S)S [DITIOCARB SODIUM]

>  <target or system>
DLD-1

>  <measured>
88.5 µM (inactive)

$$$$
>  <compound>
CCOC(=O)C1N(S(=O)(=O)c2ccc(C)cc2)CCC12c1ccccc1N(C(C)=O)C2C(/C=C/C(=O)OC)=C/C(=O)OC (stereo not given)

>  <target or system>
DLD-1

>  <measured>
> 100 µM (inactive)

$$$$

---

System: NCI-H226
Assay: NCI tumour cell line growth inhibition, 48 h
Active and inactive are the calls of the source. No stated cut-off is given here; in the data, active = GI50 up to about 1.1 µM and inactive = higher.
Outcome codes: active, inactive

>  <compound>
O=C(NC1CCN(Cc2ccccc2)CC1)c1ccccc1I

>  <label class>
inactive

$$$$
>  <compound>
CSc1nc(SC)c2c(C)c(Br)[nH]c2n1

>  <label class>
inactive

$$$$
>  <compound>
Nc1ncnc2c1ncn2CCCNO

>  <label class>
inactive

$$$$
>  <compound>
C=C(Cl)c1c(OC)cccc1OCc1ccccc1

>  <label class>
inactive

$$$$
>  <compound>
Clc1ccc(-c2nn3c(CCCCCCCCc4nnc5sc(-c6ccc(Cl)cc6)nn45)nnc3s2)cc1

>  <label class>
inactive

$$$$
>  <compound>
COc1cc(C2SCC(=O)N2c2ccc(Cl)c(Cl)c2)cc(OC)c1OC (configuration not stated)

>  <label class>
inactive

$$$$
>  <compound>
COC(=O)c1cn(CCCC(=O)O)nn1

>  <label class>
inactive

$$$$
>  <compound>
COc1cc2c3c(c1OC)C1(C=CC(=O)C=C1)CC3N(C(=O)OC(C)(C)C(Cl)(Cl)Cl)CC2 (configuration not stated)

>  <label class>
inactive

$$$$
>  <compound>
N#CC(C#N)=c1[nH]c2cccc3c2-c2c(cccc2c3=C(C#N)C#N)[nH]1

>  <label class>
inactive

$$$$
>  <compound>
Nc1sc2c(c1C(=O)c1ccc(Cl)c(Cl)c1)CCCC2

>  <label class>
inactive

$$$$
>  <compound>
COc1ccccc1NC(=O)C1=C(C)NC(C)=C(C(=O)Nc2ccccc2OC)C1c1ccccc1OC

>  <label class>
inactive

$$$$
>  <compound>
C1CCNCC1.CN(C)c1ccc(/C=C2/NC(=S)NC2=O)cc1

>  <label class>
inactive

$$$$
>  <compound>
COc1cc(C2c3cc4c(cc3[C@@H](NC3CCN(Cc5ccccc5)CC3)C3COC(=O)[C@H]23)OCO4)cc(OC)c1O (some centres not stated)

>  <label class>
active

$$$$
>  <compound>
O=C(O)CSc1nnc(COc2ccccc2)n1-c1ccccc1

>  <label class>
inactive

$$$$
>  <compound>
Cc1ncn(-c2ccccc2O)c1C

>  <label class>
inactive

$$$$
>  <compound>
[N-]=[N+]=Nc1cc(=O)oc2ccccc12

>  <label class>
inactive

$$$$
>  <compound>
O=C1SC(SCc2ccccc2)=NC12CC2c1ccccc1 (configuration not stated)

>  <label class>
inactive

$$$$
>  <compound>
O=C(Nc1ccccc1)c1cc(S(=O)(=O)n2ccnc2O)c(S)cc1Cl

>  <label class>
inactive

$$$$
>  <compound>
COC(=O)c1c(C)nc(C)c(N=O)c1-c1ccccc1C(F)(F)F

>  <label class>
inactive

$$$$
>  <compound>
CC1CC[C@]2(C(=O)O)CCC3(COC(=O)/C=C\c4ccc(O)cc4)C(=CCC4[C@@]5(C)CC[C@H](O)C(C)(C)C5CC[C@]43C)[C@@H]2[C@H]1C (some centres not stated)

>  <label class>
inactive

$$$$
>  <compound>
O=C(c1ccco1)N(Cc1cccnc1)C(=S)N(Cc1cccnc1)C(=O)c1ccco1

>  <label class>
inactive

$$$$
>  <compound>
CCCCCCCCC/C=C1\CCC(CN(C)C)C1=O (configuration not stated)

>  <label class>
inactive

$$$$
